# STUDY SYSTEM: KATP channels (Homo sapiens, UniProt O60706+Q14654)
# Construct: TE671 human medulloblastoma cells were obtained from ATCC
# Sequence (O60706 1-1549 isoform O60706-2): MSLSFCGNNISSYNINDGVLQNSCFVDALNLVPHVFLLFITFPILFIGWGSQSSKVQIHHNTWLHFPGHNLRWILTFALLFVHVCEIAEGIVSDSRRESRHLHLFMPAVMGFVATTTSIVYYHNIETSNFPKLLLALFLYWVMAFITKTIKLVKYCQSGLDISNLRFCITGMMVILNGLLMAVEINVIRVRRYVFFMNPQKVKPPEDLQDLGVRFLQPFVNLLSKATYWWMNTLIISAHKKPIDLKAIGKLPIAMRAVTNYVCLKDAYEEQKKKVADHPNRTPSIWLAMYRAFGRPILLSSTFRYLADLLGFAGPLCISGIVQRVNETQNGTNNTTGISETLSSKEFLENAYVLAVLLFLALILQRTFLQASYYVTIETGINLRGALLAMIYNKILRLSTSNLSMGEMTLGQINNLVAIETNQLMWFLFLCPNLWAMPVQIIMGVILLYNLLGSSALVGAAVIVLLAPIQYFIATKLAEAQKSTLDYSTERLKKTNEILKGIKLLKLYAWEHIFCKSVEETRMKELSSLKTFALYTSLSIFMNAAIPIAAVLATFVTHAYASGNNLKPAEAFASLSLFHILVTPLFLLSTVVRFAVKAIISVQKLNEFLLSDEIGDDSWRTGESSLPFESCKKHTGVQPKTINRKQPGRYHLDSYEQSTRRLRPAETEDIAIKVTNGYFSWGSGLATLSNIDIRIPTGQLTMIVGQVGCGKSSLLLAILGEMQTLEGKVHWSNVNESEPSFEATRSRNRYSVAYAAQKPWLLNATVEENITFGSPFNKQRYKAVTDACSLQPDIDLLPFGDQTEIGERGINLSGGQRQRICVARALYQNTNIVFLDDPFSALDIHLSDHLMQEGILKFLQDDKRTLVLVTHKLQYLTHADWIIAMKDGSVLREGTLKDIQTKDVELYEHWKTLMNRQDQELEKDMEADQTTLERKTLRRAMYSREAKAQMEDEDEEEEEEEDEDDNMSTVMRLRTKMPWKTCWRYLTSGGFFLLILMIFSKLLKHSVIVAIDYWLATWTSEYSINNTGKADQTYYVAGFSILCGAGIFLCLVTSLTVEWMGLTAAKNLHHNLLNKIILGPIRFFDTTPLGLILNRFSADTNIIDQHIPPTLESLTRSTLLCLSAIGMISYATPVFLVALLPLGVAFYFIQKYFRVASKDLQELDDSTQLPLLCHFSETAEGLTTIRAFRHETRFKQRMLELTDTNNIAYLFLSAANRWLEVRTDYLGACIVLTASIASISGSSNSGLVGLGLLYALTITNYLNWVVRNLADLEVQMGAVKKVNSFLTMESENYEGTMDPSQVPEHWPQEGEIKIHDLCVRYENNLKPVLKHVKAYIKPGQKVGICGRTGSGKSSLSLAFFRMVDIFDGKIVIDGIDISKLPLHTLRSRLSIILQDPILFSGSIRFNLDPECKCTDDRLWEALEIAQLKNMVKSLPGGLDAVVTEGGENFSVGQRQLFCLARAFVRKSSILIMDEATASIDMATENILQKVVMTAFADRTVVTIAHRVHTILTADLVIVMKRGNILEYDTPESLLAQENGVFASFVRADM
# Sequence (Q14654 whole entry): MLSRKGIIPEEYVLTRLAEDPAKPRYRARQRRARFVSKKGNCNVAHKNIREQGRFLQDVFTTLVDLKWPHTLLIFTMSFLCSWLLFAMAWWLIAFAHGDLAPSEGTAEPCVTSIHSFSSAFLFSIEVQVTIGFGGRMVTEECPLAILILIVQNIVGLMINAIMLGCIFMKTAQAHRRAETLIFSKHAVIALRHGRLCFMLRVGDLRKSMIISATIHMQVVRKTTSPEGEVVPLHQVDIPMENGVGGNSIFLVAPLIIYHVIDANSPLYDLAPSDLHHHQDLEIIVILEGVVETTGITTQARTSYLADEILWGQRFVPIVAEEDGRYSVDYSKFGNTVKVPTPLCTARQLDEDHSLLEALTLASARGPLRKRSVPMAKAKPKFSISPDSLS
# TEST METHOD NOTES: Potassium Channel Assay (FLIPR membrane potential, TE671 cells)
# REPORTED CONDITIONS: TE671 human medulloblastoma cells, Membrane Potential Assay Dye, room temperature, hyperpolarization from KATP channel opening
METRIC: EC50 (µM)

CC1(C)Oc2ccc(C#N)cc2[C@@H](n2nc(N)c3cc(Cl)ccc32)[C@@H]1O : 6.85

(1) CC1(C)Oc2ccncc2[C@@H](n2nc(-c3ccc(Cl)cc3)ccc2=O)[C@@H]1O (racemic)
(2) CC1(C)Oc2ccc(C#N)cc2[C@@H](S(=O)(=O)c2nc3cc(Cl)ccc3o2)[C@@H]1O (racemic)
Which value of EC50 is smaller, the one for 1 or the one for 2 ? Reply with the label of the item you choose.
2
(2: 6.77 µM, 1: 29.8 µM)
